Measured values drawn from paper PMC6713143 for this set.

Molecular target: hCA IX (Homo sapiens, UniProt Q16790)
Construct: made in house
Experiment: stopped-flow CO2 hydrase assay, hCA IX
Format: biochemical
Conditions: mean from three determinations, errors 5–10%
pKi: −log10 of the molar value.
Measured pKi accompanies every entry in the list below.

Consider the worked cases shown below.
[in] Requested field: pKi. Item: COC(=O)c1ccccc1S(=O)(=O)Cc1ccc(Cl)cc1 [Compound 12]
[out] 4.68

[in] Tell me the measured pKi of CCC[S+]([O-])c1ccccc1C(N)=O (centres unmarked) [Compound 31] , please.
[out] 4.42

[in] Entry under review: NC(=O)c1ccccc1[S@+]([O-])Cc1ccccc1 [(R)-17] . Reported pKi?
[out] 5.66

[in] Quick one: pKi of CCCCC[S+]([O-])c1ccccc1C(=O)OC (centres unmarked) [Compound 23] ?
[out] < 4.00

[in] Which pKi is reported for this molecule? CSc1ccccc1C(N)=O [Compound 24]
[out] 5.19

More entries:
[in] Quick one: pKi of NC(=O)c1ccccc1CCc1ccccc1 [Compound 49] ?
[out] < 4.00

[in] I am curious: what pKi value has been reported for CCCCCS(=O)(=O)c1ccccc1C(N)=O [Compound 38] ?
[out] 5.06

[in] Could you share which pKi value was measured for COC(=O)c1ccccc1S(=O)(=O)CC(=O)c1ccccc1 [Compound 15] ?
[out] < 4.00

[in] Report pKi for NC(=O)c1ccccc1NC(=O)Cc1ccccc1 [Compound 50] please.
[out] < 4.00

[in] Item under review: COC(=O)c1ccccc1NCc1ccccc1 [Compound 45] . Reported pKi?
[out] < 4.00

[in] Endpoint output: pKi of COC(=O)c1ccccc1CCc1ccccc1 [Compound 46] . Value?
[out] < 4.00

[in] May I ask what pKi has been recorded for CC(=O)c1ccccc1OCc1ccccc1 [Compound 52] ?
[out] < 4.00

[in] Can you share its pKi? I mean this molecule: COC(=O)c1ccccc1[S+]([O-])CC(=O)c1ccccc1 (centres unmarked) [Compound 14]
[out] < 4.00

[in] What value of pKi has been recorded for this entry: NC(=O)c1ccccc1NCc1ccccc1 [Compound 48]
[out] < 4.00

* * *

Ki overview
Biological target: hCA IX (Homo sapiens)
Construct: made in house
Test: stopped-flow CO2 hydrase assay, hCA IX
Type: biochemical
Conditions: mean from three determinations, errors 5–10%
Please give a number only; it is taken to be in µM.

Some solved cases for reference:
[in] If you can, please state the reported Ki value of CCSc1ccccc1C(N)=O .
[out] 16.7

[in] I would be grateful if you could share the reported Ki for CS(=O)(=O)c1ccccc1C(N)=O .
[out] 14

Next, consider the following compound.
[in] Any idea what Ki was measured for CC(=O)c1ccccc1S(=O)(=O)Cc1ccccc1 ?
[out] 16.4

* * *

Molecular target: hCA II (Homo sapiens, UniProt P00918)
Construct: made in house
Test: stopped-flow CO2 hydrase assay, hCA II
Type: biochemical
Details: mean from three determinations, errors 5–10%
Reported Ki is given for each of the following molecules.

[in] For CCSc1ccccc1C(N)=O [Compound 27] , what is its reported Ki?
[out] > 100 µM

[in] Could you tell me which Ki is on file for NC(=O)c1ccccc1[S@+]([O-])Cc1ccccc1 [(R)-17] ?
[out] 52.2 µM

[in] Which Ki reading was recorded for the molecule CCCCCS(=O)(=O)c1ccccc1C(N)=O [Compound 38] ?
[out] > 100 µM

New cases:
[in] Which Ki value is on record for COC(=O)c1ccccc1SCC(=O)c1ccccc1 [Compound 13] ?
[out] > 100 µM

[in] Look at this molecule and give its reported Ki. O=C(O)c1ccccc1CCc1ccccc1 [Compound 41]
[out] > 100 µM

[in] Fill blank: measured Ki of the molecule NC(=O)c1ccccc1S(=O)(=O)Cc1ccccc1 [Compound 18] is ____.
[out] 2.67 µM

[in] Consider the molecule shown here: NC(=O)c1ccccc1NC(=O)Cc1ccccc1 [Compound 50] What is its recorded Ki?
[out] > 100 µM

[in] Please give the measured Ki for this molecule: C[S+]([O-])c1ccccc1C(N)=O (centres unmarked) [Compound 25]
[out] > 100 µM
